log10 of EC50 of calcium mobilization, HEK 293T mNPSR cells reference
Molecular target: T1, mouse NPS receptor (mouse) (UniProt Q8BZP8)
T1 sequence: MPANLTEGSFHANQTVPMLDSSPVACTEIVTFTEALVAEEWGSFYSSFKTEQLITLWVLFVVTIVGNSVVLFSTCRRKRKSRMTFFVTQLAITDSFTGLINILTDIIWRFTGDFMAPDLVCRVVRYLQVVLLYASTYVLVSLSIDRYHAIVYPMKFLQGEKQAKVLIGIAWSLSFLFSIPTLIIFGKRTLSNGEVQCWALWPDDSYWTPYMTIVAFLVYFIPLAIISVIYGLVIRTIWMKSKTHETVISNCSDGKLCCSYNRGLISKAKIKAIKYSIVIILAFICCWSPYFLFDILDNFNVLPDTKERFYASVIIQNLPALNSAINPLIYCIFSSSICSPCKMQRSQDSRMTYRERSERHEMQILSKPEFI
Where no end group is shown, it is not given here.
observable: log10 of EC50 of calcium mobilization, HEK 293T mNPSR cells (log10 of the value in nM)

[[record]]
binder = "SFRNGVGTGMKKTSFQRAKS [Neuropeptide S]"
readout_number = 0.74

[[record]]
binder = "SFRN-NH2 [3. SerPheArgAsn-NH2]"
readout_number = 1.82

[[record]]
binder = "SFRNG-NH2 [2. SerPheArgAsnGly-NH2]"
readout_number = 3.00

[[record]]
binder = "SFRNGV-NH2 [1. SerPheArgAsnGlyVal-NH2]"
readout_number = 0.31

[[record]]
binder = "SFKN-NH2 [4. SerPheLysAsn-NH2]"
readout_number = 2.00

